Just for reference, ChEMBL document CHEMBL1201862 is where these values come from.

# System: NCI-H460
# procedureDetails: NCI tumour cell line growth inhibition, 48 h
Calls of active or inactive are those of the source. No stated cut-off is given here; in the data, active = GI50 up to about 1.1 µM and inactive = higher.
propertyLabel: GI50

COc1nc(NC2OCC(O)C(O)C2O)c(NC2OCC(O)C(O)C2O)c(=O)n1C (centres undefined): > 100 µM (inactive)
CC1(C)O[C@@H](CP(c2ccccc2)c2ccccc2)[C@H](CP(c2ccccc2)c2ccccc2)O1: 4.03 µM (inactive)
COc1ccc2c3c(c(C(=O)O)oc13)C(CCC(=O)O)CC2 (centres undefined): > 100 µM (inactive)
O=C1CSC(/C=C/c2ccccc2)N1c1ccc(-n2c(-c3ccccc3)nc3ccccc3c2=O)cc1 (centres undefined): 87.3 µM (inactive)
O=C1C[C@H](c2ccccc2)C2(C(=O)c3ccccc3C2=O)[C@H](c2ccccc2)C1: > 100 µM (inactive)
CC(=O)O[C@H]1CC[C@@]2(C)C(=CC[C@@H]3[C@@H]2CC[C@]2(C)c4nc(Cl)ccc4C[C@@H]32)C1: 33.4 µM (inactive)
C=C1CC(OC(C)=O)/C=C(/C)CCC(C(C)(C)O)CC1O (centres undefined): > 100 µM (inactive)
COc1ccc(CNc2nc3ccccc3nc2C(=O)O)cc1: 55.5 µM (inactive)
O=C1NC(=S)NC(=O)C1C(c1ccc(O)cc1)C1C(=O)NC(=S)NC1=O.c1ccncc1: > 100 µM (inactive)
